Reported Activity values follow for various compounds
# Test system: Melatonin receptor (Xenopus laevis)
# ASSAY OVERVIEW: Percent maximum effect relative to melatonin (100%)
Enter your answer as a number in %; do not include the unit.

Solved entries:
COMPOUND	NUMERIC RESULT
COc1ccc2cccc3c2c1C[C@@H](NC(C)=O)C3	0
CCC(=O)NC1Cc2cccc3ccc(OC)c(c23)C1 (racemic)	40

Please turn your attention to the following entry.
Reported Activity for Melatonin receptor (Xenopus laevis), given COc1ccc2cccc3c2c1CC(NC(C)=O)C3 (racemic) ?
0

----------
# EXPERIMENTAL TARGET: Melatonin receptor (Xenopus laevis)
# ASSAY OVERVIEW: Functional activity against melatonin receptor in lightening Xenopus laevis tadpole skin
Reported EC50 values follow for various compounds

COMPOUND	EC50
CCC(=O)NC1Cc2cccc3ccc(OC)c(c23)C1 (racemic)	> 1000 nM

Reported EC50 for Melatonin receptor (Xenopus laevis), given `O=C(NCCc1cccc2ccccc12)C1CCC1` ?
> 1000 nM

Same for `COc1ccc2ccc(OC)c(CCNC(C)=O)c2c1`
0.037 nM

Same for `COc1ccc2cccc3c2c1C[C@H](NC(C)=O)C3`
> 1000 nM

Same for `COc1ccc2cccc3c2c1C[C@@H](NC(C)=O)C3`
> 1000 nM

Same for COc1ccc2cccc3c2c1CC(NC(C)=O)C3 (racemic)
> 1000 nM

----------
# EXPERIMENTAL TARGET: Melatonin receptor (Gallus gallus, UniProt P49288+P51050+P49285)
# ASSAY OVERVIEW: Inhibition of 2-[125I]- iodomelatonin from chicken brain melatonin receptors
ATTRIBUTE MEASURED: Ki (nM)
Enter your answer as a number in nM; do not include the unit.

So what does the record say about Ki for `CCCC(=O)N[C@@H]1Cc2cccc3ccc(OC)c(c23)C1` ?
10

Same for `O=C(NCCc1cccc2ccccc12)C1CCC1`
787

Same for `CCC(=O)N[C@H]1Cc2cccc3ccc(OC)c(c23)C1`
9

Same for `CCCC(=O)N[C@H]1Cc2cccc3ccc(OC)c(c23)C1`
3.2

Same for `CCC(=O)N[C@@H]1Cc2cccc3ccc(OC)c(c23)C1`
7.6

----------
# Tested on: Melatonin receptor (Xenopus laevis)
# ASSAY OVERVIEW: Percent maximum effect relative to melatonin (100%)
ATTRIBUTE MEASURED: Activity

COMPOUND	EXPERIMENTAL TARGET	Activity
COc1ccc2ccc(OC)c(CCNC(C)=O)c2c1	Melatonin receptor (Xenopus laevis)	100%
CCCC(=O)NC1Cc2cccc3ccc(OC)c(c23)C1 (racemic)	Melatonin receptor (Xenopus laevis)	40%

Please turn your attention to the following entry.
So what does the record say about Activity for `COc1ccc2cccc3c2c1C[C@H](NC(C)=O)C3` ?
0%

----------
# EXPERIMENTAL TARGET: Melatonin receptor (Gallus gallus, UniProt P49288+P51050+P49285)
# ASSAY OVERVIEW: Inhibition of 2-[125I]- iodomelatonin from chicken brain melatonin receptors
Ki under 9 nM gets class 1, anything at or over 9 nM gets class 0.

COMPOUND	LABEL
CCCC(=O)NC1Cc2cccc3ccc(OC)c(c23)C1 (racemic)	class 1
COc1ccc2cccc3c2c1CC(NC(C)=O)C3 (racemic)	class 0
COc1ccc2cccc3c2c1C[C@@H](NC(C)=O)C3	class 0
CCC(=O)NC1Cc2cccc3ccc(OC)c(c23)C1 (racemic)	class 1

Query compound follows.
For `COc1ccc2cccc3c2c1C[C@H](NC(C)=O)C3` , is the recorded Ki below the cut-off of 9 nM?
class 0
